testTarget: OR2T34 (Homo sapiens) (UniProt Q8NGX1)
Sequence (Q8NGX1 whole entry): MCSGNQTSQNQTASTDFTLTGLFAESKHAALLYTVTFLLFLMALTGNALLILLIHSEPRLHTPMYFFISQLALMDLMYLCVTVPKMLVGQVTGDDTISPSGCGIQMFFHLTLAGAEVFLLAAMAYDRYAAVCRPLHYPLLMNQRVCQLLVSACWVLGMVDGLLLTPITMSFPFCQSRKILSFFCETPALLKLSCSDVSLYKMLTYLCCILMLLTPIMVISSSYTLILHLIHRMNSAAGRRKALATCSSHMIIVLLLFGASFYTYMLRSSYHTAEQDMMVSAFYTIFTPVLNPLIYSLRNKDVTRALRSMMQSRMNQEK
particulars: stereoisomer not certain
Answer with one of the outcomes given here: active, inactive

Asked: Returns: the outcome recorded for "CC(C)CCCC(C)(C)O" in this assay.
Given back: inactive

Asked: Returns: the outcome recorded for CC=CC(=O)C1C(C)=CCCC1(C)C (stereo not drawn) in this assay.
Given back: active

Asked: Returns: the outcome recorded for CCCCC1CCC(=O)O1 (stereo not drawn) in this assay.
Given back: inactive

----------
testTarget: UniProt Q8VG27
Sequence (Q8VG27 as listed by the source): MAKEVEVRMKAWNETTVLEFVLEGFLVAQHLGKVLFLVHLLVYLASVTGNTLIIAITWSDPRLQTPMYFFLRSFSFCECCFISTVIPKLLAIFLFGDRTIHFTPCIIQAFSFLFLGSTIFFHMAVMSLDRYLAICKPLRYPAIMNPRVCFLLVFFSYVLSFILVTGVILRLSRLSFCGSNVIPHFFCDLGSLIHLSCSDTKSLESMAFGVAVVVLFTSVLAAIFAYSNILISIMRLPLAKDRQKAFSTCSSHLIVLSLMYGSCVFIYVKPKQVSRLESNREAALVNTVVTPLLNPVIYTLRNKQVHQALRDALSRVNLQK
particulars: stereoisomer not certain
Answer with one of the outcomes given here: label 1 for active, label 0 for inactive

Asked: Returns: the outcome recorded for "CCCCCCCCCCO" in this assay.
Given back: label 0

Asked: Returns: the outcome recorded for "COc1cnccn1" in this assay.
Given back: label 0

Asked: Returns: the outcome recorded for "O=C1CCOc2ccccc21" in this assay.
Given back: label 0

Asked: Returns: the outcome recorded for "CC=Cc1ccc(OC)cc1" in this assay.
Given back: label 0

Asked: Returns: the outcome recorded for CCCCCC(C)O (stereo not drawn) in this assay.
Given back: label 0

Asked: Returns: the outcome recorded for "Cc1ccc2c(c1)OCC(=O)CO2" in this assay.
Given back: label 0

Asked: Returns: the outcome recorded for "CCCCCCCCCC(=O)[O-].[H+]" in this assay.
Given back: label 1

Asked: Returns: the outcome recorded for C=C(C)C1CCC2(C)OC2C1 (stereo not drawn) in this assay.
Given back: label 0

Asked: Returns: the outcome recorded for "CCOC(=O)C(C)C" in this assay.
Given back: label 0

Asked: Returns: the outcome recorded for "CCc1ccccc1O" in this assay.
Given back: label 0

Asked: Returns: the outcome recorded for "O=C(c1ccccc1)c1ccccc1" in this assay.
Given back: label 0

Asked: Returns: the outcome recorded for "CCCCCCCCC=CC=O" in this assay.
Given back: label 0

Asked: Returns: the outcome recorded for "CCC(=O)O" in this assay.
Given back: label 0

Asked: Returns: the outcome recorded for "CCCCCC=CCCC=O" in this assay.
Given back: label 0

Asked: Returns: the outcome recorded for "CCC=CCCCCC=O" in this assay.
Given back: label 0

Asked: Returns: the outcome recorded for "C=CC(=C)CCC=C(C)CCC=C(C)C" in this assay.
Given back: label 0

Asked: Returns: the outcome recorded for "CCCCCC(=O)CC" in this assay.
Given back: label 0

Asked: Returns: the outcome recorded for "CCCC(=O)C(C)=O" in this assay.
Given back: label 0

Asked: Returns: the outcome recorded for "O=C1Cc2ccccc2O1" in this assay.
Given back: label 0

Asked: Returns: the outcome recorded for "CCCO" in this assay.
Given back: label 0

Asked: Returns: the outcome recorded for "CC(=O)OCCc1ccccc1" in this assay.
Given back: label 0

Asked: Returns: the outcome recorded for CCC(C)c1nccnc1OC (stereo not drawn) in this assay.
Given back: label 0

Asked: Returns: the outcome recorded for "O=C(O)C1CCC1" in this assay.
Given back: label 0
